Sourced from patent US20220348651A1

Molecular target: T1, human ENTPD2 expressed on cells (human, UniProt Q9Y5L3 1-495)
T1 construct: full-length human ENTPD2 on engineered cells; also called NIH3T3 humanENTPD2; NIH/3T3-hENTPD2
T1 sequence: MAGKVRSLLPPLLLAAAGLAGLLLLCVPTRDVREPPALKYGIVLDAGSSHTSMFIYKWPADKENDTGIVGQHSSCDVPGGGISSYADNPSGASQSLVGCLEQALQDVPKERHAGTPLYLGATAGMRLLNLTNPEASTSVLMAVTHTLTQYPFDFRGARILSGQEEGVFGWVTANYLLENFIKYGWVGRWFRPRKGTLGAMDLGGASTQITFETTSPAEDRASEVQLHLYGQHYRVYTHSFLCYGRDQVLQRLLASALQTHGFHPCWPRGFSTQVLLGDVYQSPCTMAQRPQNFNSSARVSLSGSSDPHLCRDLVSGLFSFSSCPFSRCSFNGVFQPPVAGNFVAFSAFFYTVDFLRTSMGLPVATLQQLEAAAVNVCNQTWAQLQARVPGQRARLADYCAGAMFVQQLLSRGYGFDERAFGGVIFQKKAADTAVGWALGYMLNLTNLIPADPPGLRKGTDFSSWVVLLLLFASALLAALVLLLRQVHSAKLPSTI
Assay: flow cytometry, RKO cells (endogenous ENTPD2)
Quantity: EC50 (nM)
State just the number; it will be interpreted in nM.

Look up EC50: ANTI-HUMAN ENTPD2 MAB10 (antibody, human IgG1, lambda, V domains shown, also called Anti-ENTPD2 mAb10) VH: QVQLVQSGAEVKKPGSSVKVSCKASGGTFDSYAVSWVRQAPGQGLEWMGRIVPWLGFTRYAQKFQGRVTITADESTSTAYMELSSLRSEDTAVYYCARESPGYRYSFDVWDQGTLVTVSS VL: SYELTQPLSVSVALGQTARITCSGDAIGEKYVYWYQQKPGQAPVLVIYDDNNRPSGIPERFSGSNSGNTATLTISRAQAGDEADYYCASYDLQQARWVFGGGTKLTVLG
0.6
